system: M14; experiment: NCI tumour cell line growth inhibition, 48 h
Active and inactive are the calls of the source. Rule as the data show it: active = GI50 up to about 1.1 µM and inactive = higher. Non-standard residues stand in square brackets, D forms with d. Residues, ends and D or L forms follow the SMILES beside them. ξ: configuration not given here. *: point of attachment. Cbz = O=C(OCc1ccccc1)*; ξK = NCCCCC(N)C(=O)O
Outcome codes: Yes for active, No for inactive

# COMPOUND, TARGET_UNDER_TEST, GROUP_LABEL
data = [
    ("CC(C)[Si](OC1=CCC[C@H]2NC(=O)[C@@H](Cc3ccccc3)[C@@]12C)(C(C)C)C(C)C", "M14", "No"),
    ("CNc1cc(Cl)ccc1C(=O)N1CCC[C@H]1CO", "M14", "No"),
    ("N#CC(C#N)=C1/C(=C/C=C/C=C/C=C/c2ccc(N3CCCCC3)s2)S(=O)(=O)c2ccccc21", "M14", "No"),
    ("COc1ccc(Cc2c3cc(OC)c(OC)cc3cc[n+]2C)cc1", "M14", "No"),
    ("COc1ccc2cc3[n+](cc2c1OC)CCc1cc2c(cc1-3)OCO2", "M14", "No"),
    ("COc1cccc(/C=N/[N-]C(=S)Nc2ccccc2)c1[O-].O.[Zn+2]", "M14", "No"),
    ("CCN(CC)Cc1ccc(C(=S)Nc2ccc(Cl)cc2)s1", "M14", "No"),
    ("CC(=O)NC1C(OCc2ccccc2)OC(CO)C(O)C1OC(C)C(=O)N[C@@H](C)C(=O)N[C@H](CCC(=O)NCCNCCNc1c2ccccc2nc2cccc([N+](=O)[O-])c12)C(N)=O (some centres not stated)", "M14", "Yes"),
    ("CSC1=NN(C(C)=O)C(C(OC(C)=O)C(OC(C)=O)C(OC(C)=O)C(COC(C)=O)OC(C)=O)S1 (configuration not stated)", "M14", "No"),
    ("CCCOP1(=O)C=C(C)C(Cl)=C(C)C1 (configuration not stated)", "M14", "No"),
    ("NCCCCC(NC(=O)OCc1ccccc1)C(=O)NCC(N)=O (configuration not stated) (Cbz-[ξK]-Gly-NH2)", "M14", "No"),
    ("Cc1nc2c(O)cccc2c(=O)[nH]1", "M14", "No"),
    ("Oc1ccc2ccccc2c1/N=N/c1ccsc1", "M14", "No"),
    ("Nc1nc(N)c2nc(-c3ccco3)cnc2n1", "M14", "No"),
    ("CN(C)c1ccc(-c2c(C#N)c(-c3ccccc3)n(NS(=O)(=O)c3ccccc3)c(=O)c2C#N)cc1", "M14", "No"),
    ("COc1cc2c(cc1C)NC(=O)/C2=C/c1c(Cl)[nH]c2cc(C)c(OC)cc12", "M14", "No"),
    ("O=[N+]([O-])c1cc(Cl)c(Cl)cc1[N+](=O)[O-]", "M14", "No"),
    ("NCCC1([N+](=O)[O-])CCNCC1", "M14", "No"),
    ("C[C@]12CC[C@H](O)CC1CCC[C@@H]2O (some centres not stated)", "M14", "No"),
    ("CC(C)(C)C(=O)CP(=O)(O)O", "M14", "No"),
    ("Nc1nncc2[nH]cnc12", "M14", "No"),
    ("CCC(C)CN1C(=O)NC(Cc2ccccc2)C1=O (configuration not stated)", "M14", "No"),
    ("COc1cc2c(cc1OC)-c1[nH]c3ccc(C#N)cc3c1CC(=O)N2", "M14", "No"),
    ("C[C@H](CCc1nc(C#N)c(N)o1)[C@H]1CC[C@H]2[C@@H]3CCC4C[C@@H](O)CC[C@]4(C)[C@H]3C[C@@H](O)[C@]12C (some centres not stated)", "M14", "No"),
    ("Cc1ccc(Cc2nnc(S)[nH]2)cc1", "M14", "No"),
    ("CN(/N=C/c1ccnc2ccccc12)c1ccc(Cl)cc1[N+](=O)[O-]", "M14", "No"),
    ("CSc1s[s+]c(SC)c1-c1ccccc1", "M14", "No"),
    ("c1ccc(/N=C2\\C(=N/c3ccccc3)N(C3CCCCC3)/C(=N\\C3CCCCC3)N2c2ccccc2)cc1", "M14", "No"),
    ("CN(C)CCCNC(=O)N/N=C/c1ccc(O)cc1", "M14", "No"),
    ("Nc1ncnc2c1ncn2[C@@H]1O[C@H](COC(c2ccccc2)(c2ccccc2)c2ccccc2)[C@@H](OC(=S)Oc2ccccc2)[C@@H]1F", "M14", "No"),
    ("Clc1ccc(/N=C2\\c3ccccc3CN2c2ccc(Cl)cc2)cc1", "M14", "No"),
    ("c1ccc2c(c1)[nH]c1c[nH]c3c4cccnc4nc-3c12", "M14", "No"),
    ("CC(C)(C)c1cc(C(=O)/C=C/c2c(Cl)cccc2Cl)cc(C(C)(C)C)c1O", "M14", "No"),
    ("O=C1C([P+](c2ccccc2)(c2ccccc2)c2ccccc2)=C([O-])C(=Cc2ccc(Cl)c(Cl)c2)C([O-])=C1[P+](c1ccccc1)(c1ccccc1)c1ccccc1", "M14", "No"),
    ("C/C(=N\\NC(=S)Nc1ccc([N+](=O)[O-])cc1)c1nc2cccnc2[nH]1", "M14", "No"),
    ("O/N=C1/C2CC3CC1(c1ccccc1)CC(/C3=N/O)/C2=N\\O (configuration not stated)", "M14", "No"),
    ("COc1ccc(Nc2nc3c([nH]2)c(=O)n(C)c(=O)n3C)cc1", "M14", "No"),
    ("O=P(OCc1ccccc1)(OCc1ccccc1)C(O)/C=C/c1ccccc1 (configuration not stated)", "M14", "No"),
    ("O=c1[nH]/c(=C/c2cccs2)c(=O)[nH]/c1=C/c1ccc(OCc2ccccc2)cn1", "M14", "Yes"),
    ("BrC(c1cccc2ccccc12)c1cccc2ccccc12", "M14", "No"),
    ("CCC(=S)N(C)O", "M14", "No"),
    ("Oc1ccc2c(c1)c1c(n2CCN2CCOCC2)-c2ccccc2CC1", "M14", "No"),
]

----------
system: HCT-116; experiment: NCI tumour cell line growth inhibition, 48 h
Active and inactive are the calls of the source. Rule as the data show it: active = GI50 up to about 1.1 µM and inactive = higher.

# COMPOUND, TARGET_UNDER_TEST, GI50
data = [
    ("COc1ccc2c(c1)[n+]([O-])c(C#N)c(N1CCN(c3ccc([N+](=O)[O-])cc3)CC1)[n+]2[O-]", "HCT-116", "3.66 µM (inactive)"),
    ("C=C(C)C(CC=C(C)C)CC12CC(CC=C(C)C)C(C)(C)C(CC=C(C)C)(C(=O)C(Cc3ccc(O)c(O)c3)=C1O)C2=O (centres undefined)", "HCT-116", "> 100 µM (inactive)"),
    ("COC(=O)/C=C1\\SC2(O\\C1=N/c1ccccc1)C1CC3CC(C1)CC2C3 (centres undefined)", "HCT-116", "> 100 µM (inactive)"),
    ("Cc1cc2c(O)c(c1)CN(Cc1ccccc1)Cc1cc(C)cc(c1O)CN(Cc1ccccc1)Cc1cc(C)cc(c1O)CN(Cc1ccccc1)C2", "HCT-116", "> 100 µM (inactive)"),
]

----------
test system: SR; assay: NCI tumour cell line growth inhibition, 48 h
The source made the active and inactive calls. Cut-off read from the data, not from the text of the source: active = GI50 up to about 1.1 µM and inactive = higher.
Outcome codes: YES (active), NO (inactive)

# COMPOUND, GROUP_LABEL
measured = [
    ("CC(=O)c1ccc2c3c1[C@H]1O[C@H]1c1cccc(c1-3)[C@@H]1O[C@H]21", "NO"),
    ("O=C(CCCC(=O)N1CC(CCl)c2ccc([N+](=O)[O-])cc21)N1CC(CCl)c2ccc([N+](=O)[O-])cc21 (stereo not drawn)", "NO"),
    ("O=[N+]([O-])c1ccc(-c2nc3cc(Cl)ccc3[nH]2)cc1", "NO"),
    ("Cc1cn(C2C=CC(COP(=O)(OCc3ccc([N+](=O)[O-])o3)N(C)CCCCCl)O2)c(=O)[nH]c1=O (stereo not drawn)", "NO"),
    ("COc1cccc2c1C(=O)c1c(O)c3c(c(O)c1C2=O)CC(O)(C(O)CO)CC3OC1CC(N2CCOCC2)C(O)C(C)O1 (stereo not drawn)", "YES"),
    ("CCOC(=O)C1CCCCN1CCc1c[nH]c2ccccc12 (stereo not drawn)", "NO"),
    ("COc1ccc2c(c1OC)C(=O)N1C2=Cc2c(cc3c(c2OC)OCO3)CC1N(C)C (stereo not drawn)", "NO"),
    ("C=C(N=[N+]=[N-])c1cn(C2CC(O)C(CO)O2)c(=O)[nH]c1=O (stereo not drawn)", "NO"),
    ("COc1cc2c(cc1OCCCN1CCOCC1)N=C[C@@H]1CCCN1C2=O", "NO"),
    ("CC(=O)OCCN(C1=NCCN1)/[N+](C=c1ccc(=C=[N-])cc1)=C/c1ccc(C#N)cc1", "NO"),
    ("CC(=O)O[C@H]1C(=O)[C@@]2(C)C([C@H](OC(=O)c3ccccc3)[C@]3(O)C[C@H](OC(=O)[C@H](O)[C@H](NC(=O)c4ccccc4)c4ccc(Cl)cc4)C(C)=C1C3(C)C)C1(OC(C)=O)CO[C@@H]1C[C@@H]2O (stereo partly drawn)", "YES"),
    ("Cc1ccccc1/N=N/c1ccc(N/N=C2/CCCNC2=O)c(C)c1", "NO"),
    ("Oc1ccc2ccccc2c1/N=N/c1ccsc1", "NO"),
]
